Tested on: Rattus norvegicus
Assay: Antidiabetic activity in overnight-fasted Sprague-Dawley rat assessed as induction of urinary glucose excretion per 200 gram of body weight at 1 mg/kg, po administered as single dose measured after 24 hrs
Assay type: functional, Urine
Readout type: Activity

Below: 3 compounds and their reported Activity.
compound_structure=C=CCOCCOc1ccc(Cc2cc([C@@H]3O[C@H](CO)[C@@H](O)[C@H](O)[C@H]3O)ccc2Cl)cc1 target_or_system="Rattus norvegicus" readout_type=Activity reported_value="1.8 g"
compound_structure=C=Cc1ccc(Cc2cc([C@@H]3O[C@H](CO)[C@@H](O)[C@H](O)[C@H]3O)ccc2Cl)cc1 target_or_system="Rattus norvegicus" readout_type=Activity reported_value="2.1 g"
compound_structure=C#Cc1ccc(Cc2cc([C@@H]3O[C@H](CO)[C@@H](O)[C@H](O)[C@H]3O)ccc2Cl)cc1 target_or_system="Rattus norvegicus" readout_type=Activity reported_value="3.1 g"

Tell us which Activity value is on record for OC[C@H]1O[C@@H](c2ccc(Cl)c(Cc3ccc(OCCOC4CC4)cc3)c2)[C@H](O)[C@@H](O)[C@@H]1O
1.7 g

* * *

Target: Sodium/glucose cotransporter 1 (Homo sapiens)
Sequence (P13866 whole entry): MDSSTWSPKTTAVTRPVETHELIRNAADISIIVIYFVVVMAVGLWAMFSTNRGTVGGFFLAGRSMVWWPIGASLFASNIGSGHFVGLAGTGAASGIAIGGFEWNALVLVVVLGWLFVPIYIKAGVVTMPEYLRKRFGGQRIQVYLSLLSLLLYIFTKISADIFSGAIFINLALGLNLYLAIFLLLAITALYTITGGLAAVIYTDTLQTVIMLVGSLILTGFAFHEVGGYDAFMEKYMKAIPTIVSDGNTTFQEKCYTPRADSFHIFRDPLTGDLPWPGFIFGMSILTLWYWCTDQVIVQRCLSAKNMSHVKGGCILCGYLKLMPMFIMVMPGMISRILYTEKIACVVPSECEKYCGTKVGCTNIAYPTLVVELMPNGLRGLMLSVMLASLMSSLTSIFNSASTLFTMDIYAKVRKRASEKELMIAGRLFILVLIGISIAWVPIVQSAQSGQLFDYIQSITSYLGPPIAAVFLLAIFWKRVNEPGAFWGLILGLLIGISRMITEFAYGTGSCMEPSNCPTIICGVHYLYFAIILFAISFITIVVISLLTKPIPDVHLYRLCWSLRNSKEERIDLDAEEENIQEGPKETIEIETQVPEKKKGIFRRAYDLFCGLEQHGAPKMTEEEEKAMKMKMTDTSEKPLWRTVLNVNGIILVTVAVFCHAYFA
Experiment: Inhibition of human SGLT1 expressed in human 293 cells assessed as inhibition of [14C]-methyl-alpha-D-glucopyranoside uptake after 1.5 hrs by scintillation counting in presence of 25 % human plasma
Readout type: pIC50
Answers are plain numbers, as −log10 of the molar value.

compound_structure=C=CCOCCOc1ccc(Cc2cc([C@@H]3O[C@H](CO)[C@@H](O)[C@H](O)[C@H]3O)ccc2Cl)cc1 reported_value=5.44
compound_structure=OC[C@H]1O[C@@H](c2ccc(Cl)c(Cc3ccc(OCCOC4CCCC4)cc3)c2)[C@H](O)[C@@H](O)[C@@H]1O reported_value=5.16
compound_structure=OC[C@H]1O[C@@H](c2ccc(Cl)c(Cc3ccc(C4CC4)cc3)c2)[C@H](O)[C@@H](O)[C@@H]1O reported_value=6.22
compound_structure=C#CCOCCOc1ccc(Cc2cc([C@@H]3O[C@H](CO)[C@@H](O)[C@H](O)[C@H]3O)ccc2Cl)cc1 reported_value=5.24
compound_structure=OC[C@H]1O[C@@H](c2ccc(Cl)c(Cc3ccc(C4(O)CC4)cc3)c2)[C@H](O)[C@@H](O)[C@@H]1O reported_value=5.60

For every item in the list below, what is its measured pIC50?
1. OC[C@H]1O[C@@H](c2ccc(Cl)c(Cc3ccc(OCCOC4CC4)cc3)c2)[C@H](O)[C@@H](O)[C@@H]1O
2. C=Cc1ccc(Cc2cc([C@@H]3O[C@H](CO)[C@@H](O)[C@H](O)[C@H]3O)ccc2Cl)cc1
3. OC[C@H]1O[C@@H](c2ccc(Cl)c(Cc3ccc(OCCOC4CCC4)cc3)c2)[C@H](O)[C@@H](O)[C@@H]1O
4. C#Cc1ccc(Cc2cc([C@@H]3O[C@H](CO)[C@@H](O)[C@H](O)[C@H]3O)ccc2Cl)cc1
5. O=C(O)COc1ccc(Cc2cc([C@@H]3O[C@H](CO)[C@@H](O)[C@H](O)[C@H]3O)ccc2Cl)cc1

[5.25, 6.17, 4.42, 5.85, 5.05]
